Sourced from paper PMC9680624

tested on: PC3; assay: In vitro anti-proliferative activity, MTT assay; type: cell-based; details: Homo sapiens, PC-3, 24 h, read-out: In vitro cytotoxicity IC50 PC3
property: IC50 (µg/mL)

INSERT INTO results (molecule, quantitativeresult) VALUES
  ('O=S(=O)(NNc1nnc(Cl)c2ccccc12)c1ccccc1 [Compound 24c]', 14.9),
  ('Cc1ccc(S(=O)(=O)NNc2nc(Cl)nc3cccc(Cl)c23)cc1 [Compound 19a]', 21.5),
  ('CNc1nc(Nc2ccc(F)c(Cl)c2)c2ccccc2n1', 47.2),
  ('Fc1ccc(Nc2nc(Cl)nc3cccc(Cl)c23)cc1Cl [Compound 11a]', 91.3),
  ('Fc1ccc(Nc2nc(Cl)nc3ccccc23)cc1Cl', 85);

----------
system: PC3; experiment: In vitro anti-proliferative activity, MTT assay; type: cell-based; settings: Homo sapiens, PC-3, 24 h, read-out: In vitro cytotoxicity IC50 PC3
Reported IC50 values follow for various molecules
property: IC50 (µg/mL)

INSERT INTO results (molecule, property, quantitativeresult) VALUES
  ('O=S(=O)(NNc1nc(Cl)nc2cccc(Cl)c12)c1ccc(F)cc1 [Compound 19b]', 'IC50', 32.7),
  ('O=C1CCC(Nc2nc(Cl)nc3cccc(Cl)c23)C(=O)N1 (centres unmarked) [Compound 13a]', 'IC50', 54.3),
  ('CCNc1nc(Nc2ccc(F)c(Cl)c2)c2ccccc2n1', 'IC50', 15.5),
  ('Fc1ccc(Nc2nc(Cl)nc3ccc(Cl)cc23)cc1Cl [Compound 11b]', 'IC50', 51.2),
  ('O=C1CCC(N2C(=O)c3ccccc3C2=O)C(=O)N1 (centres unmarked) [Thalidomide, thalidomide, reference compound]', 'IC50', 16.9);

----------
tested on: PC3; assay: In vitro anti-proliferative activity, MTT assay; assay type: cell-based; details: Homo sapiens, PC-3, 24 h, read-out: In vitro cytotoxicity IC50 PC3
We begin with a simple list: items and their reported IC50.
property: IC50 (µg/mL)

INSERT INTO assay_data (molecule, property, quantitativeresult) VALUES
  ('O=S(=O)(NNc1nnc(Cl)c2ccccc12)c1ccc(F)cc1 [Compound 24b]', 'IC50', 4.11),
  ('O=C1CCC(Nc2nc(Cl)nc3ccc(Cl)cc23)C(=O)N1 (centres unmarked) [Compound 13b]', 'IC50', 38.4),
  ('NC(=O)NNc1nc(Cl)nc2cccc(Cl)c12 [Compound 15a]', 'IC50', 26.1),
  ('Cc1ccc(S(=O)(=O)NNc2nnc(Cl)c3ccccc23)cc1 [Compound 24a]', 'IC50', 8.63),
  ('NC(=O)NNc1nc(Cl)nc2ccc(Cl)cc12 [Compound 15b]', 'IC50', 13.8);
